Where a name gives a salt, the structure may show the parent alone.
property: melting point (°C)
Answer with a number only, understood to be in °C.

Dear colleague, I am looking for the recorded melting point of the following compound: CC1(C)c2ccccc2S(=O)(=O)N1CCN1CCN(c2cccc3c2CCC3)CC1 (as salt: hydrochloride)
271

Also need CC1(C)c2ccccc2S(=O)(=O)N1CCCN1CCN(c2ncccn2)CC1 (as salt: hydrochloride) , thanks.
263

Also need C=C(CN1CCN(c2cccc3ccccc23)CC1)CN1C(C)(C)c2ccccc2S1(=O)=O , thanks.
193

Also need Cc1ccc(C)c(N2CCN(CCCN3C(C)(C)c4ccccc4S3(=O)=O)CC2)c1 (as salt: hydrochloride) , thanks.
218

Also need CC1(C)c2ccccc2S(=O)(=O)N1CCCN1CCN(c2ccc(Cl)c3ccccc23)CC1 , thanks.
151

Also need CC1(C)c2ccc([N+](=O)[O-])cc2S(=O)(=O)N1CCCN1CCN(c2cccc3ccccc23)CC1 , thanks.
203

Also need CCC1(CC)c2ccccc2S(=O)(=O)N1CCCN1CCN(c2cccc3ccccc23)CC1 , thanks.
179

Also need CC1(C)c2ccccc2S(=O)(=O)N1CCN1CCN(c2ncnc3ccccc23)CC1 (as salt: hydrochloride) , thanks.
178

====

Counter-ions that a name gives are not always drawn.
property: melting point (°C)
Answer with a number only, understood to be in °C.

Dear colleague, I am looking for the recorded melting point of the following compound: CC1(C)c2ccccc2S(=O)(=O)N1CCCN1CCN(c2ccc3ccccc3n2)CC1
63

Also need CC1(C)c2ccc(-n3cccc3)cc2S(=O)(=O)N1CCCN1CCN(c2cccc3ccccc23)CC1 (as salt: hydrochloride) , thanks.
269

Also need COc1ccccc1N1CCN(CC(O)CN2C(C)(C)c3ccccc3S2(=O)=O)CC1 (centres unmarked) , thanks.
160

Also need CC1(C)c2ccccc2S(=O)(=O)N1CCN1CCN(c2ccccc2C#N)CC1 (as salt: hydrochloride) , thanks.
228

Also need CC1(C)c2ccccc2S(=O)(=O)N1CCCN1CCN(c2nc(-c3ccccc3)nc3ccccc23)CC1 (as salt: hydrochloride) , thanks.
269

Also need CC1(C)c2ccccc2S(=O)(=O)N1CCN1CCN(c2cccc3ccccc23)CC1 (as salt: hydrochloride) , thanks.
282

Also need COc1ccc(N2CCN(CCN3C(C)(C)c4ccccc4S3(=O)=O)CC2)cc1 (as salt: hydrochloride) , thanks.
207

Also need Cc1cccc(N2CCN(CCN3C(C)(C)c4ccccc4S3(=O)=O)CC2)c1C (as salt: hydrochloride) , thanks.
291
